Measured values drawn from the supplement of paper PMC9732359 for this set.

assay: protein stability index of a GFP-peptide fusion (yeast GPS) (PSI 1-4); higher = more stable; sorted into four equal gates, so the index is relative within each strain; details: ubr1∆
// reported protein stability index for each item listed
Reply with just the number.

>>> readout_number("PFLLMELHKKLVEAAKL [YDL116W/NUP84]")
1.25

Query string: Reported protein stability index, sequence VLAQYHEAKERIRQKEV [SNF6] : ____
Result string: 3.4

Query string: Field request: protein stability index | item: TLGKLSTSVGWKYEDVV [RPL16B]
Result string: 2.81

Query string: Look up protein stability index for this sequence: VMPVPNVRSSVLQKVIE [SKP1]
Result string: 2.35
